meta.source: patent US6143790A

Tested on: iNOS
assay-summary: % inhibition of iNOS at 100 μM
Format: biochemical
Where a name gives a salt, the structure may show the parent alone.
Listed below: % inhibiton iNOS at 100 μM values for each entry.
observable: % inhibiton iNOS at 100 μM (%)

                                    molecule                  observable  observed
 0             CCOC(=O)C[C@@H](N)CCCCNC(C)=N  % inhibiton iNOS at 100 μM        35
 1  CC(=N)NCCCC[C@H](N)C(=O)NO [Example 50, hydrochloride]  % inhibiton iNOS at 100 μM      40.6
 2  CC(=N)NCCCC(C)N (centres unmarked) [Example 4, dihydrochloride]  % inhibiton iNOS at 100 μM        33
 3  COC(=O)CC(N)c1ccc(NC(C)=N)cc1 (centres unmarked) [Example 10f]  % inhibiton iNOS at 100 μM       7.7
 4  CC(=N)NCCCC[C@H](N)C(O)COC(C)=O (some centres unmarked) [Example 19, hydrochloride monohydrate]  % inhibiton iNOS at 100 μM        54
 5  CC(=N)NCCCC[C@H](N)c1ncc(C)o1 [Example 49, hydrochloride hydrate]  % inhibiton iNOS at 100 μM      19.4
 6  CC(=N)NCCCC[C@H](N)c1nnn[nH]1 [Example 41, dihydrochloride]  % inhibiton iNOS at 100 μM      28.5
 7  CC(=N)NCCCC[C@H](N)C(O)c1ccccc1 (single isomer, unassigned) [Example 11B, hydrochloride dihydrate]  % inhibiton iNOS at 100 μM       4.6
 8              CCOC(=O)C[C@@H](N)CCCNC(C)=N  % inhibiton iNOS at 100 μM         5
 9  CC(=N)NCCCC[C@H](N)C(COC(C)=O)OC(C)=O (some centres unmarked) [Example 18, hydrochloride monohydrate]  % inhibiton iNOS at 100 μM         7
10  CC(=N)NCCCC[C@H](N)C(O)CO (single isomer, unassigned) [Example 3A, dihydrochloride]  % inhibiton iNOS at 100 μM      53.4

* * *

Listed below: pIC50 values for each entry.
measured-target: Human inducible NOS (hiNOS) (Homo sapiens)
Construct: made in house; host or cells: insect cells, baculovirus vector
assay-summary: Citrulline Assay for Nitric Oxide Synthase, hiNOS
Assay type: biochemical
pIC50: −log10 of the molar value. Structures can show the parent of a compound that is named as a salt.
observable: pIC50

                                   compound  observed
0  CC(=N)NCCCC[C@H](N)C(C)(O)CO (single isomer, unassigned) [Example 15A, hydrochloride dihydrate]      5.03
1  CC(=N)NCCCC[C@H](N)C(C)(O)CO (single isomer, unassigned) [Example 15B, hydrochloride dihydrate]      3.73
2    CC(=N)NCCCC[C@H](N)CC(=O)O [Example 1]      4.21
3  CC(=N)NCCCC[C@H](N)C(O)CO (single isomer, unassigned) [Example 3B, dihydrochloride]      4.91
4  CC(=N)NCCCC[C@H](N)C(O)C(C)O (single isomer, unassigned) [Example 16B, dihydrochloride hydrate]      4.11

* * *

Entries with their measured IC50, system human endothelial constitutive NOS (hecNOS) (Homo sapiens, UniProt P29474):
Counter-ions that a name gives are not always drawn.
observable: IC50

                                   compound  observable  observed
0  CC(=N)NCCCC[C@H](N)C(O)C(C)O (single isomer, unassigned) [Example 16B, dihydrochloride hydrate]        IC50   5.43 mM
1  CC(=N)NCCCC[C@H](N)C(C)(O)CO (single isomer, unassigned) [Example 15A, hydrochloride dihydrate]        IC50   2.35 mM
2  CC(=N)NCCCC[C@H](N)C(C)(O)CO (single isomer, unassigned) [Example 15B, hydrochloride dihydrate]        IC50   6.59 mM
